# Test system: Pseudomonas aeruginosa
# testMethodNotes: Antimicrobial activity against Pseudomonas aeruginosa PAO1 with pvdS mutation after 24 hrs
# Type: functional
# settings: PAO1, 24 h
assayEndpoint: MBC
Hey, just the number and the unit after it is fine.

Worked cases, MBC given:
[[record]]
compound = "C[C@@H](O)[C@H]1C(=O)N2C(C(=O)O)=C(SCCNC=N)C[C@H]12 [IMIPENEM ANHYDROUS]"
subjectoftest = "Pseudomonas aeruginosa"
assayendpoint = "MBC"
recordedvalue = "4 µg/mL"

[[record]]
compound = "C[C@@H](O)[C@H]1C(=O)N2C(C(=O)[O-])=C(SC3Cn4cnc[n+]4C3)[C@H](C)[C@H]12 (some centres undefined) [BIAPENEM]"
subjectoftest = "Pseudomonas aeruginosa"
assayendpoint = "MBC"
recordedvalue = "1 µg/mL"

[[record]]
compound = "O=C(O)c1cn(C2CC2)c2cc(N3CCNCC3)c(F)cc2c1=O [CIPROFLOXACIN]"
subjectoftest = "Pseudomonas aeruginosa"
assayendpoint = "MBC"
recordedvalue = "0.25 µg/mL"


Asked: Please state recorded MBC (tested on Pseudomonas aeruginosa) of CC1COc2c(N3CCN(C)CC3)c(F)cc3c(=O)c(C(=O)O)cn1c23 (centres undefined) [OFLOXACIN]
Given back: 2 µg/mL

====

# System: Pseudomonas aeruginosa
# testMethodNotes: Antimicrobial activity against wild type Pseudomonas aeruginosa PAO1 after 24 hrs
# Format: functional
# settings: PAO1, 24 h
assayEndpoint: MIC (µg/mL)
Give bare numbers, in µg/mL.

[[record]]
compound = "C[C@@H](O)[C@H]1C(=O)N2C(C(=O)O)=C(SCCNC=N)C[C@H]12 [IMIPENEM ANHYDROUS]"
unitstext = "µg/mL"
recordedvalue = 1

[[record]]
compound = "C[C@@H](O)[C@H]1C(=O)N2C(C(=O)[O-])=C(SC3Cn4cnc[n+]4C3)[C@H](C)[C@H]12 (some centres undefined)"
unitstext = "µg/mL"
recordedvalue = 0.5

[[record]]
compound = "O=C(O)c1cn(C2CC2)c2cc(N3CCNCC3)c(F)cc2c1=O"
unitstext = "µg/mL"
recordedvalue = 0.125


Here's the next entry for you.
Asked: Please state recorded MIC (tested on Pseudomonas aeruginosa) of CC1COc2c(N3CCN(C)CC3)c(F)cc3c(=O)c(C(=O)O)cn1c23 (centres undefined)
Given back: 1

Values compiled from ChEMBL document CHEMBL1147102.
